System: IDO1 enzyme in Hela cells (Homo sapiens, UniProt P14902)
Construct: recombinant human γ-interferon was added at a final concentration of 100 ng/mL to induce IDO1 expression; endogenous in cells
Sequence (P14902 whole entry): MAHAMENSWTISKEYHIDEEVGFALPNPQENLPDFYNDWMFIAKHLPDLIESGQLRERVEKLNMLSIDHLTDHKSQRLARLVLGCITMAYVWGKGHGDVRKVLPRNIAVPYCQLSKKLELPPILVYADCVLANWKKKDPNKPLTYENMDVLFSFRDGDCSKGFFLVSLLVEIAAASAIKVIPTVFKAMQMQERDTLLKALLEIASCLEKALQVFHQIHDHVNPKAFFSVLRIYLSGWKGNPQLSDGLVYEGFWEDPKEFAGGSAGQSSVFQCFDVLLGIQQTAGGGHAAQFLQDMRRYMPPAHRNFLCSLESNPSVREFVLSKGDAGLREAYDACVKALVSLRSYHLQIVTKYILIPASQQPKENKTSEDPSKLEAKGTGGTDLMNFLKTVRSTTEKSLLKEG
Protocol text: hIDO1 cytological activity assay (kynurenine in Hela cells by LC-MS)
Recorded conditions: Hela cells induced with 100 ng/mL recombinant human γ-interferon, 20 h, read-out: IC50 hIDO1 Cytoactive
Measure name: IC50 (nM)
Answers are plain numbers, in nM.

[
  {
    "Compound": "OC(CC1c2sccc2-c2cncn21)C1CCCCC1 (single isomer, unassigned)",
    "Measure name": "IC50",
    "Numeric readout": 5.08
  },
  {
    "Compound": "CC(C)(C(O)C1CCCCC1)C1c2sccc2-c2cncn21 (single isomer, unassigned)",
    "Measure name": "IC50",
    "Numeric readout": 1980
  },
  {
    "Compound": "OC1CCCCC1C1c2sccc2-c2cncn21 (single isomer, unassigned) [Example 85]",
    "Measure name": "IC50",
    "Numeric readout": 159
  }
]

Problem: # query: IC50 of entry OC1CCCCC1C1c2sccc2-c2cncn21 (single isomer, unassigned) [Example 53]
Result: 377

====

Please provide measured IC50 for the entries that follow.
System: IDO1 enzyme in Hela cells (Homo sapiens)
Construct: recombinant human γ-interferon was added at a final concentration of 100 ng/mL to induce IDO1 expression; endogenous in cells; host or cells: Hela cells, induced with recombinant human γ-interferon
Protocol text: hIDO1 cytological activity assay (kynurenine in Hela cells by LC-MS)
Format: cell-based
Recorded conditions: Hela cells induced with 100 ng/mL recombinant human γ-interferon, 20 h, read-out: IC50 hIDO1 Cytoactive
Give bare numbers, in nM.

Example cases with answers are listed next.
[
  {
    "Compound": "OC1CCC(C2c3sccc3-c3cncn32)CC1 (single isomer, unassigned) [Example 117]",
    "Numeric readout": 891
  },
  {
    "Compound": "c1cc2c(s1)C(CCC1CCCCC1)n1cncc1-2 (single isomer, unassigned) [Example 9]",
    "Numeric readout": 17.5
  },
  {
    "Compound": "OCC1(C2c3sccc3-c3cncn32)CCCCC1 (single isomer, unassigned) [Example 42]",
    "Numeric readout": 779
  }
]

List reported IC50 for each of these compounds:
1. FC1(F)[C@@H]2C[C@@H](C3c4sccc4-c4cncn43)C[C@@H]21 (single isomer, unassigned) [Example 62]
2. FC1(CCC2c3sccc3-c3cncn32)CCCCC1 (stereo not drawn) [Example 39]

Result:
[446, 90.5]

====

Please provide measured IC50 for the entries that follow.
System: IDO1 enzyme in Hela cells (Homo sapiens, UniProt P14902)
Construct: recombinant human γ-interferon was added at a final concentration of 100 ng/mL to induce IDO1 expression; endogenous in cells
Protocol text: hIDO1 cytological activity assay (kynurenine in Hela cells by LC-MS)
Recorded conditions: Hela cells induced with 100 ng/mL recombinant human γ-interferon, 20 h, read-out: IC50 hIDO1 Cytoactive
Numbers only, in nM.

// worked examples, IC50 included
[
  {
    "Compound": "OC(CC1c2ccsc2-c2cncn21)C1CCCCC1 (centres unmarked) [Example 4]",
    "IC50 / nM": 613
  },
  {
    "Compound": "FC1(F)CCC(CCC2c3sccc3-c3cncn32)CC1 (single isomer, unassigned) [Example 22]",
    "IC50 / nM": 212
  }
]

Batch lookup, IC50 per entry.
1. O[C@@H](C[C@H]1c2sccc2-c2cncn21)C1CCOCC1 (single isomer, unassigned) [Example 29]
2. FC1(F)C2CC(C3c4sccc4-c4cncn43)CC21 (single isomer, unassigned) [Example 77]
3. c1cc2c(s1)C(C1CCCCCC1)n1cncc1-2 (single isomer, unassigned) [Example 72]

Result:
1. 117
2. 125
3. 223

Problem: Entry FC1(F)CCC([C@H]2c3sccc3-c3cncn32)CC1 (single isomer, unassigned) [Example 41] , system IDO1 enzyme in Hela cells (Homo sapiens, UniProt P14902): what IC50 was measured?
Result: 74.9
